variants and their reported protein stability index
B1: FBXO3 (parent)
chain: DEEERRRRVFDVPIRRRRCSRLF

- Variants of: B1
- procedure summary: protein stability index of a GFP-peptide fusion (GPS, HEK-293T) (PSI 1-6); higher = more stable;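 also: lentivirally expressed fusions sorted by FACS into six bins by GFP to DsRed ratio, PSI derived from sequencing read proportions per bin multiplied by bin number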
- stated conditions: c terminus: native
I'd appreciate a reply containing only the number, no unit.

Study these solved cases before continuing.
[
  {
    "mutant name": "P13C",
    "protein stability index": 2.98
  },
  {
    "mutant name": "D11W",
    "protein stability index": 1.76
  }
]

Request: What does the record list as protein stability index for S20Q ?
Response: 2.69

Request: Cool, now R16K
Response: 3.51

Request: Cool, now R6L
Response: 2.69

Data provenance: the supplement of paper PMC10567573
